# credit: PubChem BioAssay

Experiment: antimalarial activity against Dd2 strain (AID 2302);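 further: 0% = DMSO untreated growth and 100% = chloroquine plus artemisinin killed control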
Conditions: P. falciparum Dd2 in RBCs, LDH growth readout, 72 h; at 2 µM
The source made the active and inactive calls.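 How the source made its calls: active means growth inhibition above 50% at the single 2 µM test dose, taken to imply half-maximal potency below 2 µM; inactive means the rest.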
Respond only with the outcome that fits, drawn from active, inactive

Completed entries (count: 3):
compound: Cn1cnc(CCNC(=O)c2ccc(-c3ccc(-c4nc5ccc(F)cc5[nH]4)cc3)cc2)c1
category: inactive

compound: Cn1cc(CCNc2ccnc(NCCc3coc4ccccc34)n2)c2ccccc21
category: inactive

compound: CCC(C)NC(=O)Nc1ccc(-c2cccc(-c3nc4ccccc4[nH]3)c2)cc1 (centres undefined)
category: inactive

# ---- query compound ----
Q) So what was the verdict on `CN1CCCN(Cc2cccc(-c3ccc(NC(=O)c4cccc(Cl)c4)cc3)c2)CC1` in this test?
A) inactive

----------
Assay: inhibition of 3D7 malaria parasite growth – strain 3D7 (AID 2306);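 further: 0% = DMSO wells and 100% = chloroquine plus artemisinin control wells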
Conditions: P. falciparum 3D7 erythrocytic growth, LDH absorbance, 72 h; at 2 µM; hits give high values
reported property: growth inhibition (%)
Supply the numeric figure in %, leaving out any unit text.

compound: COc1cccc(CCc2nc3c(N4CCC(Cc5ccccc5)CC4)cccc3n2CC2CNCCO2)c1 (stereo not given)
growth inhibition [%]: 94

For this compound ( `Cc1cc(N[C@@H](CC(C)C)C(=O)NCCOc2ccccc2)nc(Nc2ccccc2)n1` ), measured growth inhibition is 93

Field growth inhibition (entry `O=C(/C=C/c1ccc(Cl)c(Cl)c1)NCCCCCN1CCN(C(=O)Nc2cccc(F)c2)CC1` ) reads 91

Recorded result, `Nc1nc(N)c2c(ccc3c2ccn3Cc2ccccc2)n1` , growth inhibition: 96

response.value for `c1ccc(-c2ccc3c(Nc4ccc5[nH]ncc5c4)ccnc3c2)nc1` (field: growth inhibition) = 100

----------
compounds and their reported growth inhibition
Assay: inhibition of 3D7 malaria parasite growth – strain 3D7 (AID 2306);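 further: 0% = DMSO wells and 100% = chloroquine plus artemisinin control wells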
Conditions: P. falciparum 3D7 erythrocytic growth, LDH absorbance, 72 h; at 2 µM; hits give high values
Give just the numeric value; % need not be written.

compound: CCOC(=O)c1c(CNc2ccncc2)n(C)c2cc(Br)c(OC(C)=O)cc12
growth inhibition, %: 96

compound: Cc1nc(C(C)Nc2nncc(-c3ccc(Cl)cc3)n2)cs1 (stereo not drawn)
growth inhibition, %: 91

compound: O=C(Nc1cccc(CN2CCCN(CC3CC3)CC2)c1)c1ccc(-c2ccccc2)cc1
growth inhibition, %: 96

Entry `Cc1[nH]c2ccccc2c1C1CCN(CCCCNC(=O)c2ccc(-c3ccc(C#N)cc3)cc2)CC1` , growth inhibition reported as 101

Value of measured growth inhibition for the entry `CCCCN(CCCC)CCCCCCNc1c2ccccc2nc2ccccc12` : 95

Data point: O=C(Nc1ccc2c(c1)CCN2C1CCN(Cc2ccc(F)cc2Cl)C1)c1ccco1 (stereo not drawn) ; growth inhibition = 97

Lab note: `NC(N)=Nc1ccc(C(=O)O)c(O)c1` gave growth inhibition of 94

Sure, the documented growth inhibition for NC1CCCN(Cc2cccc(-c3ccc(-c4nc5ccccc5[nH]4)cc3)c2)C1 (stereo not drawn) is 101

Just so you know, measured growth inhibition for `Cc1cccc(Nc2nc(N)c3ccccc3n2)c1` came out at 99

# growth inhibition of CC(C)C[C@H](NC(=O)c1cc2ccccc2s1)C(=O)N[C@H]1CCN(Cc2ccc(I)c(OC3CCN(C)C3)c2)C1 (stereo partly drawn) = 100

Noted for `C[C@H]1CN(Cc2cccc(-c3cc(CNC(=O)c4cccc(CC5CCN(C)CC5)c4)ccc3F)c2)CCN1C` : its growth inhibition reads 101

Query `CC(C)Cn1c(Sc2ccc(C#N)c([N+](=O)[O-])c2)nnc1-c1ccc(N(C)C)cc1` yields growth inhibition of 98

Note to self: growth inhibition recorded for `O=C(Nc1ccc(F)cc1)NC1CCN(c2ccnc3cc(Cl)ccc23)CC1` was 97

Lab book: growth inhibition of `Cc1ccc(NC(=O)c2ccc3ncccc3c2)cc1OC1CCN(Cc2ccc(F)cc2)CC1` noted as 91

Consider `COc1ccc(CON2C(N)=NC(N)=NC2(C)C)cc1OC` . Its measured growth inhibition is 96

The recorded growth inhibition for `O=C(/C=C/c1ccc(Cl)c(Cl)c1)NCCCCCN1CCC(NC(=O)Nc2cccc(F)c2)CC1` is 100

growth inhibition reading for `CCOCCCn1c(=N)c(C(=O)NCc2ccc(OC)cc2)cc2c(=O)n3cccc(C)c3nc21` : 99

// `Cc1ccc(NC(=S)NC2CCN(CCCCCNC(=O)/C=C/c3ccc(Cl)c(Cl)c3)CC2)cc1Cl` : growth inhibition value = 100

Entry under test: `Cc1ccc2[nH]c3ccccc3c(=O)c2c1` . Its growth inhibition was 93

Lab note: `CC(C)(C)CC(C)(C)c1ccc(O)c(C(=O)Nc2ccc([N+](=O)[O-])cc2)c1` gave growth inhibition of 97

get_value(item= `CC(C)(CNCc1cccc(Oc2cccc(C(F)(F)F)c2)c1)c1nc(-c2ccc(Cl)c(O)c2)c(-c2ccnc(N)n2)[nH]1` , readout=growth inhibition) returns 99

Measured growth inhibition of `CN1CCC(N(Cc2ccc(-c3cnc(NCc4ccccc4)nc3)cc2)S(=O)(=O)c2ccccc2)CC1` : 102

Item: Cc1nc(-c2cccc(NC(C)C(=O)Nc3cc(C(F)(F)F)ccc3N3CCOCC3)c2)cs1 (stereo not drawn) | growth inhibition: 82
